# reported pEC50; entries follow
# SYSTEM TESTED: hAPJ (Homo sapiens)
# Sequence (P35414 whole entry): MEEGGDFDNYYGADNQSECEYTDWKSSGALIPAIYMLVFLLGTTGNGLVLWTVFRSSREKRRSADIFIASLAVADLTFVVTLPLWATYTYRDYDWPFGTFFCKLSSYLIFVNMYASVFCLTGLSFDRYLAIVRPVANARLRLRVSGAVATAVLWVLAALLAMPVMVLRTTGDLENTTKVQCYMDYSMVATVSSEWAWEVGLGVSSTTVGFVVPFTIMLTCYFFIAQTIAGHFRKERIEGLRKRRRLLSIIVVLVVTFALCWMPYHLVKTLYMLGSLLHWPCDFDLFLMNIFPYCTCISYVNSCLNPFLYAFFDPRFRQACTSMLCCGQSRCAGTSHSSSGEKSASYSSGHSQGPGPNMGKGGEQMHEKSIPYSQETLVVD
# EXPERIMENTAL PROTOCOL: hAPJ Calcium Flux Assay
# Assay type: cell-based
# CONDITION DETAILS: Chem-5 APJ stable cells, FLIPR calcium flux stimulation; read-out: hAPJ Ca^2+ Flux EC50
Where a SMILES comes first, the peptide text is derived from it. [ ]: non-standard residue; d: D form. The star is where a group is joined. Phe(3,4-Cl2) = N[C@@H](Cc1ccc(Cl)c(Cl)c1)C(=O)O; 2Nal = N[C@@H](Cc1ccc2ccccc2c1)C(=O)O; pGlu = O=C1CC[C@@H](C(=O)O)N1; dNle = CCCC[C@@H](N)C(=O)O; dNva = CCC[C@@H](N)C(=O)O; Nle = CCCC[C@H](N)C(=O)O; tBu = CC(C)(C)*
Worth noting: pEC50 values are minus log10 of concentrations stated in mol/L.

Consider the worked cases shown below.
compound="CCCC[C@@H](NC(=O)[C@@H]1CCCN1C(=O)CNC(=O)[C@H](CCCCN)NC(=O)[C@H](Cc1c[nH]cn1)NC(=O)[C@@H](CSC(C)(C)C)NC(=O)[C@H](CC(C)C)NC(=O)[C@H](CCCNC(=N)N)NC(=O)[C@@H]1CCCN1C(=O)[C@H](CCCNC(=N)N)NC(=O)[C@@H]1CCC(=O)N1)C(=O)N[C@H](C)C(=O)N[C@H](Cc1ccccc1)C(=O)O [Example 7, pE-R-P-R-L-c(tBu)-H-K-G-P-nle-a-f-OH] ([pGlu]RPRL[dC](tBu)HKGP[dNle][dA][dF]-OH)" system_tested="hAPJ (Homo sapiens)" measure_name=pEC50 experimental_value=6.16
compound=CCCC[C@@H](NC(=O)[C@@H]1CCCN1C(=O)CNC(=O)[C@H](CCCCN)NC(=O)[C@H](Cc1c[nH]cn1)NC(=O)[C@@H](C)NC(=O)[C@H](CC(C)C)NC(=O)[C@H](CCCNC(=N)N)NC(=O)[C@@H]1CCCN1C(=O)[C@H](CCCNC(=N)N)NC(=O)[C@@H]1CCC(=O)N1)C(=O)N1CCC(Oc2ccccc2)CC1 system_tested="hAPJ (Homo sapiens)" measure_name=pEC50 experimental_value=8.70
compound=CCCC[C@@H](NC(=O)[C@@H]1CCCN1C(=O)CNC(=O)[C@H](CCCCN)NC(=O)[C@@H](Cc1c[nH]cn1)NC(=O)[C@@H](C)NC(=O)[C@H](CC(C)C)NC(=O)[C@H](CCCNC(=N)N)NC(=O)[C@@H]1CCCN1C(=O)[C@H](CCCNC(=N)N)NC(=O)[C@@H]1CCC(=O)N1)C(=O)N[C@H](C)C(=O)N[C@H](Cc1ccccc1)C(=O)O system_tested="hAPJ (Homo sapiens)" measure_name=pEC50 experimental_value=8.06
compound="CCCC[C@H](NC(=O)[C@@H]1CCCN1C(=O)CNC(=O)[C@H](CCCCN)NC(=O)[C@H](Cc1c[nH]cn1)NC(=O)[C@@H](C)NC(=O)[C@H](CC(C)C)NC(=O)[C@H](CCCNC(=N)N)NC(=O)[C@@H]1CCCN1C(=O)[C@H](CCCNC(=N)N)NC(=O)[C@@H]1CCC(=O)N1)C(=O)N1CCC[C@H]1C(=O)N[C@H](Cc1ccccc1)C(=O)O [Example 34, pE-R-P-R-L-a-H-K-G-P-Nle-P-f-OH] ([pGlu]RPRL[dA]HKGP[Nle]P[dF]-OH)" system_tested="hAPJ (Homo sapiens)" measure_name=pEC50 experimental_value=7.46
compound="CCCC[C@@H](NC(=O)[C@@H]1CCCN1C(=O)CNC(=O)[C@H](CCCCN)NC(=O)[C@H](Cc1c[nH]cn1)NC(=O)[C@@H](CCC)NC(=O)[C@H](CC(C)C)NC(=O)[C@H](CCCNC(=N)N)NC(=O)[C@@H]1CCCN1C(=O)[C@H](CCCNC(=N)N)NC(=O)[C@@H]1CCC(=O)N1)C(=O)N[C@H](C)C(=O)N[C@H](Cc1ccccc1)C(=O)O [Example 52, pE-R-P-R-L-nva-H-K-G-P-nle-a-f-OH] ([pGlu]RPRL[dNva]HKGP[dNle][dA][dF]-OH)" system_tested="hAPJ (Homo sapiens)" measure_name=pEC50 experimental_value=7.71
compound="CCCC[C@@H](NC(=O)[C@@H]1CCCN1C(=O)CNC(=O)[C@H](CCCCN)NC(=O)[C@H](Cc1c[nH]cn1)NC(=O)[C@@H](C)NC(=O)[C@H](CC(C)C)NC(=O)[C@H](CCCNC(=N)N)NC(=O)[C@@H]1CCCN1C(=O)[C@@H](N)CCCNC(=N)N)C(=O)N[C@H](Cc1ccccc1)C(=O)O [Example 50, H-R-P-R-L-a-H-K-G-P-nle-f-OH] (H-RPRL[dA]HKGP[dNle][dF]-OH)" system_tested="hAPJ (Homo sapiens)" measure_name=pEC50 experimental_value=8.85

Summary: CCCC[C@@H](NC(=O)[C@@H]1CCCN1C(=O)CNC(=O)[C@H](CCCCN)NC(=O)[C@@H](Cc1ccccc1)NC(=O)[C@H](CO)NC(=O)[C@H](CC(C)C)NC(=O)[C@H](CCCNC(=N)N)NC(=O)[C@@H]1CCCN1C(=O)[C@H](CCCNC(=N)N)NC(=O)[C@@H]1CCC(=O)N1)C(=O)N[C@H](C)C(=O)N[C@H](Cc1ccccc1)C(=O)O [Example 55, pE-R-P-R-L-S-f-K-G-P-nle-a-f-OH] ([pGlu]RPRLS[dF]KGP[dNle][dA][dF]-OH) , hAPJ (Homo sapiens), pEC50 = 7.14

Summary: CCCC[C@@H](NC(=O)[C@@H]1CCCN1C(=O)CNC(=O)[C@H](CCCCN)NC(=O)[C@H](Cc1c[nH]cn1)NC(=O)[C@@H](C)NC(=O)[C@H](Cc1ccc2ccccc2c1)NC(=O)[C@H](CCCNC(=N)N)NC(=O)[C@@H]1CCCN1C(=O)[C@H](CCCNC(=N)N)NC(=O)[C@@H]1CCC(=O)N1)C(=O)N[C@H](C)C(=O)N[C@H](Cc1ccccc1)C(=O)O [Example 25, pE-R-P-R-(2-Nal)-a-H-K-G-P-nle-a-f-OH] ([pGlu]RPR[2Nal][dA]HKGP[dNle][dA][dF]-OH) , hAPJ (Homo sapiens), pEC50 = 7.16

Summary: CCCC[C@@H](NC(=O)[C@@H]1CCCN1C(=O)CNC(=O)[C@H](CCCCN)NC(=O)[C@H](Cc1c[nH]cn1)NC(=O)[C@@H](CC(C)C)NC(=O)[C@H](CC(C)C)NC(=O)[C@H](CCCNC(=N)N)NC(=O)[C@@H]1CCCN1C(=O)[C@H](CCCNC(=N)N)NC(=O)[C@@H]1CCC(=O)N1)C(=O)N[C@H](C)C(=O)N[C@H](Cc1ccccc1)C(=O)O [Example 10, pE-R-P-R-L-(D-Leu)-H-K-G-P-nle-a-f-OH] ([pGlu]RPRL[dL]HKGP[dNle][dA][dF]-OH) , hAPJ (Homo sapiens), pEC50 = 6.81

Summary: CCCC[C@@H](NC(=O)[C@@H]1CCCN1C(=O)CNC(=O)[C@H](CCCCN)NC(=O)[C@H](Cc1c[nH]cn1)NC(=O)[C@@H](C)NC(=O)[C@H](Cc1ccc(Cl)c(Cl)c1)NC(=O)[C@H](CCCNC(=N)N)NC(=O)[C@@H]1CCCN1C(=O)[C@H](CCCNC(=N)N)NC(=O)[C@@H]1CCC(=O)N1)C(=O)N[C@H](C)C(=O)N[C@H](Cc1ccccc1)C(=O)O [Example 24] ([pGlu]RPR[Phe(3,4-Cl2)][dA]HKGP[dNle][dA][dF]-OH) , hAPJ (Homo sapiens), pEC50 = 7.86
